System: COLO 205 colon
Experiment: NCI tumour cell line growth inhibition, 48 h
Overview of recorded TGI for various molecules

| molecule | endpoint_unit | cmp | TGI |
| --- | --- | --- | --- |
| CC[CH2][Sn]([CH2]CC)([O]C(=O)Cc1ccc(F)cc1)[O][Sn]([CH2]CC)([CH2]CC)[O]C(=O)Cc1ccc(F)cc1 | µM | = | 0.857 |
| N#C[S-].[Ce+3].c1cnc2c(c1)ccc1cccnc12.c1cnc2c(c1)ccc1cccnc12.c1cnc2c(c1)ccc1cccnc12 | µM | = | 13.4 |
| COc1cnc2c(c1)C(=O)c1c-2n(CCCNC(C)C)c(=O)c2cc([N+](=O)[O-])ccc12 | µM | = | 0.225 |
| Cc1cn(C2CC(NC(=NCC3OC(n4cnc5c(N)ncnc54)CC3O)NC#N)C(CO)O2)c(=O)[nH]c1=O (centres undefined) | µM | > | 100 |
| O=C(c1cccs1)N(Cc1cccnc1)C(=S)N(Cc1cccnc1)C(=O)c1cccs1 | µM | > | 100 |
| c1cc(C[S+]2CCCC2)sc1C[S+]1CCCC1 | µM | > | 100 |
| O=NN(CCCl)C(=O)N[C@H]1CCCC[C@@H]1Cl | µM | > | 100 |
| CN(C)Cc1cc(/C=C/C(=O)c2ccc(Cl)c(Cl)c2)cc(CN(C)C)c1O | µM | = | 32.5 |
| CCN1CCN(c2ccc(Nc3ncc4ccc5ncn(C(C)C)c5c4n3)nc2)CC1 | µM | = | 0.342 |

---

Overview of recorded TGI for various molecules
System: HT29 colon
Test: NCI tumour cell line growth inhibition, 48 h
observed_property: TGI

| molecule | observed_property | recorded_value |
| --- | --- | --- |
| Cc1cc(N(CCOS(C)(=O)=O)CCOS(C)(=O)=O)ccc1C=Nc1ccc(-c2csc(-c3ccc(Br)cc3)n2)cc1 | TGI | 44.6 µM |
| CC(C)c1cccc(C(C)C)c1NC(=O)CCC(=O)NN | TGI | > 100 µM |
| COc1ccc(C2c3c(-c4ccccc4)nn(-c4ccccc4)c3Oc3ncn4nc(CC#N)nc4c32)cc1OC (centres undefined) | TGI | > 100 µM |
| COc1cc(/C=C2\C[C@H]3[C@@H]4CC=C5C[C@@H](OC(C)=O)CC[C@]5(C)[C@H]4CC[C@]3(C)[C@H]2OC(C)=O)ccc1OCCN1CCCCC1 | TGI | > 50 µM |
| COC(=O)C(=O)C(C(=O)OC)C(=O)C(=O)Nc1cc(Cl)c(Cl)cc1Cl (centres undefined) | TGI | > 100 µM |
| C/C(=C\c1ccn(-c2ccc(N)cc2F)n1)[C@@H]1C[C@@H]2O[C@]2(C)CCC[C@H](C)[C@H](O)[C@@H](C)C(=O)C(C)(C)[C@@H](O)CC(=O)O1 | TGI | > 29 µM |
| COc1cnc2c(c1)C(=O)c1c-2n(CCCNC(C)C)c(=O)c2cc([N+](=O)[O-])ccc12 | TGI | 1.01 µM |
| CCOP(=O)(OCC)C(Nc1ccc(C(=O)O)cc1)c1ccc(C(Nc2ccc(C(=O)O)cc2)P(=O)(OCC)OCC)cc1 (centres undefined) | TGI | > 100 µM |
| C=C1C(=O)O[C@H]2[C@H]1CC/C(COC(=O)NCc1cc(OC)cc(OC)c1)=C\CC[C@@]1(C)O[C@@H]21 | TGI | 2.96 µM |
| Nc1nc(-c2cccs2)cs1 | TGI | > 100 µM |
| CSC1(CC(=O)N2CCCCC2)C(=O)Nc2ccccc21 (centres undefined) | TGI | > 100 µM |
| CCN(CC)CC[n+]1cc2cc(OC)c(OC)cc2c2ccc3cc4c(cc3c21)OCO4 | TGI | 1.36 µM |
| COc1ccc(C(SCC(N)C(=O)O)(c2ccc(OC)cc2)c2ccc(OC)cc2)cc1 (centres undefined) | TGI | 16.7 µM |
| C[CH2][Sn]([CH2]C)([O]C(=O)c1ccc(F)cc1)[O][Sn]([CH2]C)([CH2]C)[O]C(=O)c1ccc(F)cc1 | TGI | > 100 µM |
| CNC(=O)Nc1ccccc1 | TGI | > 100 µM |
| COC(=O)C1(C(=O)OC)CC2=C(S(=O)(=O)c3ccccc3)C[C@H](C#N)[C@H]2C1 | TGI | > 100 µM |
| CCOC(=O)C(C(=O)OCC)=c1sc(=C(C(=O)OCC)C(=O)OCC)s1 | TGI | > 100 µM |
| C/C(=N/NC(N)=S)C(CN(C)C)C(C1=C(O)c2ccccc2OC1)c1ccccc1 (centres undefined) | TGI | > 100 µM |
| COc1ccc2nc(-c3cc4c([nH]c5ccccc54)c(-c4ccc(F)c(F)c4)n3)[nH]c2c1 | TGI | 13 µM |

---

System: OVCAR-8 ovarian
Assay: NCI tumour cell line growth inhibition, 48 h
observed_property: TGI

| compound | target_desc | recorded_value |
| --- | --- | --- |
| CCOC(=O)c1ccc(Nc2nc3cc(C(F)(F)F)ccc3nc2C(=O)OCC)cc1 | OVCAR-8 ovarian | > 100 µM |
| O=S(=O)(CCCCl)SCCCCl | OVCAR-8 ovarian | 18 µM |
| FC(F)(F)c1nc(-c2ccccc2)oc1Sc1oc(-c2ccccc2)nc1C(F)(F)F | OVCAR-8 ovarian | > 100 µM |
| C=CCC1C(=O)Nc2cccc3ncn(c23)C1=O (stereo not given) | OVCAR-8 ovarian | > 100 µM |
| N#CSc1ccc(S(N)(=O)=O)cc1 | OVCAR-8 ovarian | > 100 µM |
| Oc1c(I)cc(I)cc1CN(Cc1ccccn1)Cc1ccccn1 | OVCAR-8 ovarian | 23.2 µM |
| COCN1C(=O)[C@@H]2CCCN2C(=O)c2ccc([N+](=O)[O-])cc21 | OVCAR-8 ovarian | > 100 µM |
| C=C(C)[C@@H]1CC[C@]2(C(N)=O)CC[C@]3(C)[C@H](CC[C@@H]4[C@@]5(C)C/C(=C/c6cccnc6)[C@H](O)C(C)(C)[C@@H]5CC[C@]43C)[C@@H]12 | OVCAR-8 ovarian | > 100 µM |
| O=C(O)C1=NN(c2ccc(S(=O)(=O)O)cc2)C2(C1)SCC(=O)N2c1nc2ccccc2s1 (stereo not given) | OVCAR-8 ovarian | > 100 µM |
| COc1cc2c(cc1OC)C(=O)/C(=C/c1ccc([N+](=O)[O-])cc1)CC2 | OVCAR-8 ovarian | > 10 µM |

---

Test system: UACC-257 melanoma
Assay: NCI tumour cell line growth inhibition, 48 h; in the data active means GI50 below about 0.43 µM; inactive means the rest
Labels: active, inactive

| compound | assigned_category |
| --- | --- |
| Cc1cc2nc(C(Cl)Cl)nc(-c3ccccc3)n2n1 | inactive |
| COc1cc2c(cc1OCCCN1CCN(c3ncnc4ccccc34)CC1)N=CC1CCCN1C2=O (centres undefined) | active |
| CCN(CC)CC[n+]1cc2cc(OC)c(OC)cc2c2ccc3cc4c(cc3c21)OCO4 | inactive |
| Nc1nc(-c2ccccc2)cc(-c2ccc(Cl)cc2)c1-c1nc2ccccc2o1 | inactive |
| CCOCCOC[C@H]1CCCN(c2ccnc3sc(C(N)=O)c(N)c23)C1 | inactive |
| O=C(NCCCCCCNC(=O)OCc1ccc2c(Cl)cc(Cl)c(O)c2n1)OCc1ccc2c(Cl)cc(Cl)c(O)c2n1 | inactive |
| COc1cc(N2CCC(N3CCN(C)CC3)CC2)ccc1Nc1ncc(Cl)c(Nc2ccccc2S(=O)(=O)C(C)C)n1 | inactive |
| CCN1CCN(c2ccc(Nc3ncc4ccc5ncn(C(C)C)c5c4n3)nc2)CC1 | active |
| COc1cc(/C=C2\C[C@H]3[C@@H]4CC=C5C[C@@H](OC(C)=O)CC[C@]5(C)[C@H]4CC[C@]3(C)[C@H]2OC(C)=O)ccc1OCCN1CCCCC1 | inactive |

---

Test system: UACC-257 melanoma
Assay: NCI tumour cell line growth inhibition, 48 h
Overview of recorded TGI for various compounds

| compound | TGI |
| --- | --- |
| COc1ccc2nc(-c3cc4c([nH]c5ccccc54)c(-c4ccc(F)c(F)c4)n3)[nH]c2c1 | 22 µM |
| Cc1cc(=O)[nH]c(NNC(C#N)c2ccco2)n1 (stereo not drawn) | > 100 µM |
| CN(C)c1nc(=NCc2cccnc2)ss1 | > 10 µM |
| Fc1c(F)c(C(F)(F)F)c(F)c(F)c1N/N=C/c1cn(Cc2ccccc2)c2ccccc12 | 54 µM |
| O=C1C=C2CC[C@H]3[C@@H]4CC[C@H](OC(=O)c5cccc6cc7ccccc7nc56)[C@H]4CC[C@@H]3[C@H]2CC1 | > 100 µM |
| O=c1ccnc(SCc2ccc(Cl)cc2)[nH]1 | > 100 µM |
| CC1(O)Oc2ccc3ccccc3c2C=C1C(N)=O (stereo not drawn) | > 100 µM |
| O=C(Nc1ccc(Cl)cc1)NS(=O)(=O)c1c(-c2ccccc2)oc2ccccc2c1=O | > 100 µM |
| CCN(CC)CC[n+]1cc2cc(OC)c(OC)cc2c2ccc3cc4c(cc3c21)OCO4 | 3.36 µM |
| CC(C)(C)c1cc(-c2nc3c(F)c(F)c(F)c(F)c3[nH]2)cc(C(C)(C)C)c1O | > 100 µM |
| Cc1ccc(/C=N/NS(=O)(=O)c2ccc(/C=C3\NC(=O)NC3=O)cc2)cc1 | > 100 µM |
| COC(=O)c1ccccc1C1CN=NC12Cc1cc(C)cc(C)c1C2=O (stereo not drawn) | > 100 µM |
| Nc1nc(-c2ccccc2)cc(-c2ccc(Cl)cc2)c1-c1nc2ccccc2o1 | 35.1 µM |
| CCOC(=O)N1C=CC(=C2C(=C3C=CN(C(=O)OCC)C=C3)C(=C3C=CN(C(=O)OCC)C=C3)C2=C2C=CN(C(=O)OCC)C=C2)C=C1 | > 100 µM |
| FC(F)(F)c1cccc(C2SCc3nc4ccccc4n32)c1 (stereo not drawn) | > 100 µM |
| CC[C@H]1C=CCC[C@@]2(C[C@@H]3CC[C@H]4[C@H](C(=O)OCCCCCCCCCCCCCCCC(=O)N(CCCN)C[C@@H](O)CCN)[C@]5(CCC[C@@H](C)O5)NC(=[N+]34)N2)O1 | 2.02 µM |
| CC1C(O)Oc2cc3c(cc2C1c1ccccc1O)OCO3 (stereo not drawn) | > 100 µM |
| FC(F)(F)c1nc(-c2ccccc2)oc1Sc1oc(-c2ccccc2)nc1C(F)(F)F | > 100 µM |
| N#CC(c1ccccc1)N(CCOCCOCCN(C(=O)c1cccc2ccccc12)C(C#N)c1ccccc1)C(=O)c1cccc2ccccc12 (stereo not drawn) | > 100 µM |
| CCN(CC)CCCNc1ncc(C)c2c1c1ccc3c(O)cccc3c1n2C | 31 µM |
| CCOC(=O)c1ccc(Nc2nc3cc(C(F)(F)F)ccc3nc2C(=O)OCC)cc1 | > 100 µM |
| N#CCc1nc(-c2cc3c(ccc4ccccc43)oc2=O)cs1 | 75.7 µM |
| CC#CC(=O)N1CC[C@@H](n2c(=O)n(-c3ccc(Oc4ccccc4)cc3)c3c(N)ncnc32)C1 | > 100 µM |
| O=C(C=Nc1ccccc1C(=O)[O-])c1cccs1.O=C(C=Nc1ccccc1C(=O)[O-])c1cccs1.[Zn+2] | 43 µM |
| CC(C)N1[C@@H]2CCCC[C@H]2N(C(C)C)P1(=O)C(=O)/C=C/c1ccccc1 | 13.5 µM |
| Cc1ccccc1NC(=O)c1ccc([N+](=O)[O-])cc1 | > 100 µM |
| Cn1c(=O)c2c(nc(NCCNc3nc4c(c(=O)n(C)c(=O)n4C)n3C)n2C)n(C)c1=O | > 100 µM |
| O=S(=O)(CCCCl)SCCCCl | > 100 µM |
| COc1ccc(C2=NN(C(=O)c3cccnc3)C(O)(c3cc(F)c(Cl)cc3Cl)C2)cc1OC (stereo not drawn) | 34.2 µM |
| C/C(=C\c1ccn(-c2ccc(N)cc2F)n1)[C@@H]1C[C@@H]2O[C@]2(C)CCC[C@H](C)[C@H](O)[C@@H](C)C(=O)C(C)(C)[C@@H](O)CC(=O)O1 | > 50 µM |
| C[C@]12CCC(=O)C=C1CC[C@@H]1[C@@H]2[C@@H](O)C[C@@]2(C)[C@H]1CC[C@]2(O)C(=O)COC(=O)C1CCCC1 | > 100 µM |
| O=C(CC(=O)N1N=C(N(c2ccccc2)c2ccccc2)CC1c1ccccc1)Nc1ccccc1 (stereo not drawn) | > 100 µM |
| C#CCCOC(=O)c1ccccc1OC(C)=O | > 100 µM |
| CC[CH2][Sn]([CH2]CC)([O]C(=O)Cc1ccc(F)cc1)[O][Sn]([CH2]CC)([CH2]CC)[O]C(=O)Cc1ccc(F)cc1 | 0.869 µM |
| CCO/C=C(\C(=O)OC)S(=O)(=O)c1ccc(C)cc1 | > 100 µM |
| CN1CCc2cc(N)cc3c2C1Cc1ccc2c(c1-3)OCO2 (stereo not drawn) | > 64.6 µM |
| CCCN1C(=O)CNC(=O)c2[nH]cnc21 | > 100 µM |
| Cn1sc2ccccc2c1=S | 21.3 µM |
